meta.source: ChEMBL document CHEMBL1201862

System: HOP-62
Assay: NCI tumour cell line growth inhibition, 48 h
Activity calls are given as the source filed them. No stated cut-off is given here; in the data, active = GI50 up to about 1.1 µM and inactive = higher.
Listed below: GI50 values for each entry.
measuredAttribute: GI50

>>> observed("CSC(=NC1=NC(C(F)(F)F)(C(F)(F)F)N=C(c2ccccc2)O1)SC")
"9.1 µM (inactive)"
>>> observed("CC1(C)N=C(N)N=C(N)N1c1cccc(Cl)c1")
"4.85 µM (inactive)"
>>> observed("CCOC(=O)Nc1cc2c(c(N)n1)N=C(c1ccc3ccccc3c1)CN2")
"0.0564 µM (active)"
>>> observed("CC[C@@]1(OC(=O)CCC(=O)O)C(=O)OCc2c1cc1n(c2=O)Cc2cc3ccccc3nc2-1")
"0.0139 µM (active)"
>>> observed("CC(=O)Nc1nc(Cl)cc(NCC2(CO)CCC2)n1")
"> 100 µM (inactive)"
>>> observed("CC(C)C1CC(CO)(CNc2cc(Cl)nc(N)n2)C1 (stereo unspecified)")
"> 100 µM (inactive)"

---

System: SNB-75
Test: NCI tumour cell line growth inhibition, 48 h
Calls of active or inactive are those of the source. No stated cut-off is given here; in the data, active = GI50 up to about 1.1 µM and inactive = higher.
measuredAttribute: GI50

>>> observed("COC(=O)[C@H](Cc1ccccc1)NC(=O)c1ccc(CNC(=O)/C=C/c2cccc(Oc3ccccc3)c2)cc1")
"34.8 µM (inactive)"
>>> observed("Oc1ccc(C2Oc3cc(O)cc4c3C2c2cc(O)cc3c2C(c2cc(O)cc5c2C4C(c2ccc(O)cc2)O5)C(c2ccc(O)cc2)O3)cc1 (centres undefined)")
"3.19 µM (inactive)"
>>> observed("CN(C)c1n2c3cc([N+](=O)[O-])ccc3[n+]3c(N(C)C)n4ccccc4c3c2c2cccc[n+]12.[O-][Cl+3]([O-])([O-])[O-].[O-][Cl+3]([O-])([O-])[O-]")
"> 100 µM (inactive)"
>>> observed("CO/N=C(/C(=O)OC)c1ccccc1COc1cccc(C(F)(F)F)c1")
"31.7 µM (inactive)"
>>> observed("Cn1c(=O)cc(/N=N\\c2ccc(Cl)c(Cl)c2)[nH]c1=O")
"49.2 µM (inactive)"
>>> observed("CCOC(OCC)C(CCc1ccccc1)c1c(N)nc(N)[nH]c1=O (centres undefined)")
"> 100 µM (inactive)"
>>> observed("O=C1OCC2OC(=O)c3cc(O)c(O)c(O)c3-c3c(O)c(O)c(O)c4c3C(=O)OC(C2OC(=O)c2cc(O)c(O)c(O)c2-c2c1cc(O)c(O)c2O)C1OC(=O)C2C4=C(O)C(=O)C23Oc2cc(O)c4c(c2[C@H]13)O[C@H](c1ccc(O)c(O)c1)[C@@H](O)C4 (some centres undefined)")
"28.4 µM (inactive)"
>>> observed("[N-]=[N+]=NC12CC3C4CC5CC3C(C1)C(C5)C4C2")
"> 100 µM (inactive)"
>>> observed("COC(=O)NC(Nc1ccccn1)(C(F)(F)F)C(F)(F)F")
"> 100 µM (inactive)"
>>> observed("CCOC(=O)c1csc(NC(=O)CCN2CCCC2)n1")
"> 100 µM (inactive)"
>>> observed("O=C1CCC2(c3ccccc3)Nc3ccc(Cl)cc3N12 (centres undefined)")
"37.7 µM (inactive)"
>>> observed("OC1CC1Sc1ccccc1 (centres undefined)")
"26.7 µM (inactive)"
>>> observed("COC(=O)/C=C/C(=O)Nc1cc(Cl)c(Cl)cc1CC(=O)N(C)[C@H]1CCCC[C@@H]1N1CCCC1")
"13.8 µM (inactive)"
>>> observed("CC(C)C(C/C=C1/CC(CO)(COC(=O)c2ccccc2)OC1=O)C(C)C (centres undefined)")
"7.5 µM (inactive)"
>>> observed("C/C(=N/NC(N)=S)c1ccc2ccccc2c1")
"25.9 µM (inactive)"
>>> observed("CCc1nc(N)nc(N)c1-c1ccc2c(c1)nnn2CCc1ccccc1")
"15.8 µM (inactive)"
>>> observed("CCOC(=O)C(Cc1ccc(OC(=O)c2ccc(OC)cc2OC)cc1)NC(=O)C(F)(F)F (centres undefined)")
"16.4 µM (inactive)"
>>> observed("Cc1cn(CC2=NCC(C)N2)c(=O)[nH]c1=O (centres undefined)")
"> 100 µM (inactive)"
>>> observed("O=C(N/C(=C\\c1cc(Cl)ccc1Cl)c1nc2c(O)nc(S)nc2[nH]1)c1ccccc1")
"34.2 µM (inactive)"
